biological target: Muscarinic acetylcholine receptor M1 (Homo sapiens, UniProt P11229)
Sequence (P11229 whole entry): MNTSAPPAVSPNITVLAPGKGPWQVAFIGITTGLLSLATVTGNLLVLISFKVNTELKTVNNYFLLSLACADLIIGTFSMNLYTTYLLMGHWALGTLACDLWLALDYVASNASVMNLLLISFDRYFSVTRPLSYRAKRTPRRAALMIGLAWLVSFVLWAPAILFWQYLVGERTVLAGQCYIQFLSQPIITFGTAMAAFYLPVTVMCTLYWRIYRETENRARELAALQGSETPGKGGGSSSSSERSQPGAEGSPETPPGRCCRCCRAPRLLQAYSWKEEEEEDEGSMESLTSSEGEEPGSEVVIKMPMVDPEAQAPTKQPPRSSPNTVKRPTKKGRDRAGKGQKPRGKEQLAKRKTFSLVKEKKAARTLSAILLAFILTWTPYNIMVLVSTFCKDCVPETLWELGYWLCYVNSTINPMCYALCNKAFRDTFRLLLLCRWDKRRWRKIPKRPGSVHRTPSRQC
pKi: −log10 of the molar value.
I would appreciate it if you labelled entries Criterion met when pKi is 5 or higher, otherwise Criterion not met.

MOLECULE: O=C(CCN1CCCc2ccccc21)Nc1ccc(Cl)cc1
ASSIGNED CLASS: Criterion met
//
MOLECULE: O=C(CCN1CCCc2ccccc21)NCc1ccco1
ASSIGNED CLASS: Criterion met
//
MOLECULE: O=C(CN1CCCc2ccccc21)N1CCCC1
ASSIGNED CLASS: Criterion met
//
MOLECULE: CC1Cc2ccccc2N1CC(=O)N1CCCC1 (stereo not drawn)
ASSIGNED CLASS: Criterion not met
//
MOLECULE: O=C(CCN1CCCc2ccccc21)N1CCC[C@H]1CO
ASSIGNED CLASS: Criterion not met
//
MOLECULE: O=C(CN1CCc2ccc(F)cc21)N1CCCC1
ASSIGNED CLASS: Criterion not met
//
MOLECULE: O=C(CN1CCCc2cnccc21)N1CCCC1
ASSIGNED CLASS: Criterion not met
//
MOLECULE: O=C(CCN1CCCc2ccccc21)NCc1cccc(F)c1
ASSIGNED CLASS: Criterion met
//
MOLECULE: COC1CN(C(=O)CCN2CCCc3ccccc32)C1
ASSIGNED CLASS: Criterion not met
//
MOLECULE: O=C(CCN1CCCc2ccccc21)N1CCCC1CO (stereo not drawn)
ASSIGNED CLASS: Criterion not met
//
MOLECULE: O=C(CCN1CCCc2ccccc21)Nc1cccnn1
ASSIGNED CLASS: Criterion not met
//
MOLECULE: O=C(CCN1CCCc2ccccc21)Nc1nccs1
ASSIGNED CLASS: Criterion met
//
MOLECULE: Cn1ccc2c(NC(=O)CCN3CCCc4ccccc43)cccc21
ASSIGNED CLASS: Criterion met

* * *

molecular target: UniProt P08172; assay: Antagonist activity at human muscarinic M2 receptor expressed in CHO cells co-expressing Galpha15 assessed as inhibition of acetylcholine-induced calcium mobilization relative to acetylcholine
pIC50: −log10 of the molar value.
This listing pairs molecules with measured pIC50.
METRIC NAME: pIC50

MOLECULE: CC1Cc2ccccc2N1CC(=O)N1CCCC1 (centres undefined)
INEQUALITY SIGN: <
NUMERIC VALUE: 4.00
//
MOLECULE: O=C(CN1CCc2ccc(Br)cc21)N1CCCCC1
INEQUALITY SIGN: <
NUMERIC VALUE: 4.00
//
MOLECULE: CC1CCCCN1CC(=O)n1c2ccccc2c2ccccc21 (centres undefined)
INEQUALITY SIGN: =
NUMERIC VALUE: 4.28
//
MOLECULE: O=C(O)C1CCCN1C(=O)CCN1CCCc2ccccc21 (centres undefined)
INEQUALITY SIGN: =
NUMERIC VALUE: 6.11
//
MOLECULE: Cc1ccc2c(c1)CCCN2CC(=O)N1CCCCC1
INEQUALITY SIGN: =
NUMERIC VALUE: 4.61
//
MOLECULE: O=C(CCN1CCCc2ccccc21)Nc1cccc2ccccc12
INEQUALITY SIGN: =
NUMERIC VALUE: 6.47
//
MOLECULE: CC1Cc2ccccc2N1CC(=O)N1CCCCC1 (centres undefined)
INEQUALITY SIGN: <
NUMERIC VALUE: 4.00
//
MOLECULE: O=C(CN1CCCc2ccccc21)N1CCCC1
INEQUALITY SIGN: =
NUMERIC VALUE: 6.21
//
MOLECULE: CC1CCc2ccccc2N1CC(=O)N1CCCC1 (centres undefined)
INEQUALITY SIGN: =
NUMERIC VALUE: 5.31
//
MOLECULE: O=C(CCN1CCCc2ccccc21)Nc1ccc(O)cc1F
INEQUALITY SIGN: <
NUMERIC VALUE: 4.00
//
MOLECULE: CC(C)(C)OC(=O)N1CCN(CC(=O)n2c3ccccc3c3ccccc32)CC1
INEQUALITY SIGN: =
NUMERIC VALUE: 4.73
//
MOLECULE: O=C(CCN1CCCc2ccccc21)N1CCCC(CO)C1 (centres undefined)
INEQUALITY SIGN: =
NUMERIC VALUE: 6.12
//
MOLECULE: O=C(CCN1CCCc2ccccc21)Nc1ccc(Cl)cc1
INEQUALITY SIGN: =
NUMERIC VALUE: 5.85
//
MOLECULE: Cn1ccc(NC(=O)CCN2CCCc3ccccc32)n1
INEQUALITY SIGN: =
NUMERIC VALUE: 6.01
//
MOLECULE: O=C(CCN1CCCc2ccccc21)N1CCCC1
INEQUALITY SIGN: =
NUMERIC VALUE: 5.74
//
MOLECULE: O=C(CN1CCCc2ccccc21)N1CCCCC1
INEQUALITY SIGN: =
NUMERIC VALUE: 6.36
//
MOLECULE: O=C(CCN1CCCc2ccccc21)N1CCCC1CO (centres undefined)
INEQUALITY SIGN: =
NUMERIC VALUE: 4.72
//
MOLECULE: CC1CCCN(C(=O)CCN2CCCc3ccccc32)C1 (centres undefined)
INEQUALITY SIGN: =
NUMERIC VALUE: 5.82
//
MOLECULE: O=C(CCN1CCCc2ccccc21)N1CCC1
INEQUALITY SIGN: =
NUMERIC VALUE: 4.92
//
MOLECULE: O=C(CCN1CCCc2ccccc21)N1CCCCC1CO (centres undefined)
INEQUALITY SIGN: =
NUMERIC VALUE: 4.97
//
MOLECULE: O=C(CCN1CCCc2ccccc21)N1CCC(O)C1 (centres undefined)
INEQUALITY SIGN: =
NUMERIC VALUE: 4.15
//
MOLECULE: O=C(CN1CCCc2cnccc21)N1CCCC1
INEQUALITY SIGN: <
NUMERIC VALUE: 4.00
//
MOLECULE: O=C(CCN1CCCc2ccccc21)N1CCC(O)CC1
INEQUALITY SIGN: =
NUMERIC VALUE: 4.82
//
MOLECULE: O=C(CN1CCCc2cnccc21)N1CCCCC1
INEQUALITY SIGN: <
NUMERIC VALUE: 4.00

* * *

This listing pairs compounds with measured pKi.
molecular target: Muscarinic acetylcholine receptor M4 (Homo sapiens)
Sequence (P08173 whole entry): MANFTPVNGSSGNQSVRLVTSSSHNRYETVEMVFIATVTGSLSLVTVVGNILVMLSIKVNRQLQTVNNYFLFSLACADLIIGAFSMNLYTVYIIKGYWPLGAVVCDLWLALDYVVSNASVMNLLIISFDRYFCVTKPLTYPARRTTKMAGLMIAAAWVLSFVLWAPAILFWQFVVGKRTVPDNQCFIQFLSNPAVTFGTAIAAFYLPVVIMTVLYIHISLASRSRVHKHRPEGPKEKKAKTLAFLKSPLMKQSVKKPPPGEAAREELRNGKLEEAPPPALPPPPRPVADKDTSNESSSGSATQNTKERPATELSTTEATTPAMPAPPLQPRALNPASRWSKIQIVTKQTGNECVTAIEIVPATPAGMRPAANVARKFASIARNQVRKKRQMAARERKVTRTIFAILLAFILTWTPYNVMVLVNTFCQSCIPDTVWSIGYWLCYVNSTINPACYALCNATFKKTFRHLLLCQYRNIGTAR
pKi: −log10 of the molar value.

COMPOUND: O=C(CCN1CCCc2ccccc21)Nc1ccc(O)cc1F
pKi: < 4.00
--
COMPOUND: O=C(CN1CCc2ccc(Br)cc21)N1CCCCC1
pKi: < 4.00
--
COMPOUND: CC1Cc2ccccc2N1CC(=O)N1CCCCC1 (stereo not drawn)
pKi: < 4.00

* * *

Biological target: Muscarinic acetylcholine receptor M2 (Homo sapiens, UniProt P08172)
Sequence (P08172 whole entry): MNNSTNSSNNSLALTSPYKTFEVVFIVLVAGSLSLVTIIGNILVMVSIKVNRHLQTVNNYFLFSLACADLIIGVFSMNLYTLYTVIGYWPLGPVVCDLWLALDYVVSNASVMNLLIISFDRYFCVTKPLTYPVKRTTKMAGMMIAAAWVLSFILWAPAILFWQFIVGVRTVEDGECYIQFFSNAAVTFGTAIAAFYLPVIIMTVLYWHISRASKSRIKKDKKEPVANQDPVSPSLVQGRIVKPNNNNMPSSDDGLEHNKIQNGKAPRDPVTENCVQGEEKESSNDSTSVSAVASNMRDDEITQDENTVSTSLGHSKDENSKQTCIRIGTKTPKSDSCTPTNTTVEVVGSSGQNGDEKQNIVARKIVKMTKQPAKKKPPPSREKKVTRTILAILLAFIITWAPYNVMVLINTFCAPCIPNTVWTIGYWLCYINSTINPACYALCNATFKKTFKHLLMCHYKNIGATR
METRIC NAME: Ki

COMPOUND: CC1Cc2ccccc2N1CC(=O)N1CCCCC1 (centres undefined)
METRIC NAME: Ki
RESULT: > 100 µM

COMPOUND: O=C(CCN1CCCc2ccccc21)N1CCC[C@H]1CO
METRIC NAME: Ki
RESULT: 5.13 µM

COMPOUND: O=C(CCN1CCCc2ccccc21)NCc1cccs1
METRIC NAME: Ki
RESULT: 0.646 µM

COMPOUND: O=C(CCN1CCCc2ccccc21)N1CCCCC1CO (centres undefined)
METRIC NAME: Ki
RESULT: 3.63 µM
